Values were extracted from PubChem BioAssay AID2060910.

The entries below are paired with their reported viability, T/C.
Test system: 242566-281-R-J2-PDC complex spheroid viability;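 also: spheroids exposed to compound for 7 days before readout; 100% = DMSO vehicle control wells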
TEST_SUMMARY: Anticancer human tumor 242566-281-R-J2-PDC patient-derived pancreatic carcinoma cell line growth inhibition [RAS]
REPORTED_CONDITIONS: second compound 1 µM; first compound 0.0316 µM; active compounds read low
Excerpt: RAS pathway inhibitors in Combinations in Complex Spheroids A high-throughput screen of multi-cell type tumor spheroids was designed to identify active combinations of RAS pathway inhibitors and targeted small molecules. Complex spheroids include a stromal component modeled by human endothelial cells (HUVEC) and fibroblasts modeled by human mesenchymal stem cells (MSCs). […] Compounds. […] If the clinical Cmax for an agent had not been determined, the highest concentration tested was 10 microM. […]
Give just the numeric value; % need not be written.

Recorded results for 2 molecules are shown here.
1. CCC(CC)c1cc(NC2CCC(N)C2)n2nccc2n1 (stereo not drawn) + C#Cc1c(F)ccc2cc(O)cc(-c3ncc4c(N5CC6CCC(C5)N6)nc(OCC56CCCN5CC(F)C6)nc4c3F)c12    68.2
2. CC(C)NCC(C(=O)N1CCN(c2ncnc3c2C(C)CC3O)CC1)c1ccc(Cl)cc1 (stereo not drawn) + C#Cc1c(F)ccc2cc(O)cc(-c3ncc4c(N5CC6CCC(C5)N6)nc(OCC56CCCN5CC(F)C6)nc4c3F)c12    71.8

Kindly review the next molecule as well.
Look up viability, T/C for this molecule: CC(Nc1ccc2c(c1)OCCn1cc(N3C(=O)OCC3C(F)F)nc1-2)C(N)=O (stereo not drawn) + C=CC(=O)N1CCN(c2nc(OCC3CCCN3C)nc3c(F)c(-c4nc(N)cc(C)c4C(F)(F)F)c(Cl)cc23)C(C)C1
104
